Target: ER (Homo sapiens (Human))
Test: In-cell western (ICW) ER degradation assay in MCF-7 cells
Format: cell-based
Details: ER degradation, MCF7, 16 hrs
# DC50 values compiled below

A selection of reference data follows.
compound	value_measured
O=C1CCC(N2Cc3c(ccc4c3OC[C@H]3CN(CC5CC6(CCN(c7ccc([C@@H]8c9ccc(O)cc9OC[C@@H]8c8ccccc8)cn7)CC6)C5)CCN43)C2=O)C(=O)N1 (single isomer, unassigned) [Compound A65]	1 to 10 nM
O=C1CCC(NC(=O)c2ccc(N3CCN(CC4CCN(c5ccc([C@@H]6c7ccc(O)cc7OC[C@@H]6c6ccccc6)cc5)CC4)CC3)cn2)C(=O)N1 (single isomer, unassigned)	1 to 10 nM
COc1cc(N2CCC(CN3CCN4c5cc6c(cc5OC[C@H]4C3)C(=O)N([C@@H]3CCC(=O)NC3=O)C6)CC2)ccc1[C@H]1c2ccc(O)cc2OC[C@H]1c1ccccc1 (single isomer, unassigned)	< 1 nM
O=C1CCC(N2Cc3c(ccc4c3OCC43CCN(CC4CC5(CCN(c6ccc([C@@H]7c8ccc(O)cc8OC[C@@H]7c7ccccc7)cc6)CC5)C4)CC3)C2=O)C(=O)N1 (some centres unmarked)	< 1 nM

Alright, here's another compound for you.
Requested read-out: DC50. Entry: O=C1CCC(N2Cc3cc(N4CCN(CC5CCN(c6ccc([C@@H]7c8ccc(O)cc8OC[C@@H]7c7ccccc7)cc6)CC5)CC4)ccc3C2=O)C(=O)N1 (single isomer, unassigned)
< 1 nM

====

Recorded measurements of Dmax, one per entry
Target: ER (Homo sapiens (Human))
Assay: In-cell western (ICW) ER degradation assay in T47D cells
Type: cell-based
Conditions: maximal ER degradation, 16 hrs

The cases that follow already have their Dmax on record.
compound	Dmax
O=C1CCC(N2Cc3c(ccc4c3OC[C@H]3CN(CC5CCN(c6ccc([C@@H]7c8ccc(O)cc8OC[C@@H]7c7ccccc7)cn6)CC5)CCN43)C2=O)C(=O)N1 (single isomer, unassigned) [Compound A69]	25 to 50%
COc1cc(N2CCC3(CC2)CC(CN2CCN4c5ccc6c(c5OC[C@@H]4C2)CN([C@@H]2CCC(=O)NC2=O)C6=O)C3)c(F)cc1[C@@H]1c2ccc(O)cc2OC[C@@H]1c1ccccc1 (single isomer, unassigned) [Compound A125]	≥ 75%
O=C1CCC(N2Cc3c(ccc4c3OC[C@H]3CN(CC5CCN(c6ncc([C@H]7c8ccc(O)cc8OC[C@H]7c7ccccc7)cn6)CC5)CCN43)C2=O)C(=O)N1 (single isomer, unassigned) [Compound A35]	50 to 75%

Consider the compound COc1nc(C(=O)NC2CCC(=O)NC2=O)ccc1N1CCN(CC2CCC3(CC2)CN(c2ccc([C@@H]4c5ccc(O)cc5OC[C@@H]4c4ccccc4)cc2)C3)CC1 (single isomer, unassigned) [Compound A108] and give its measured Dmax.
≥ 75%

====

Molecular target: ER (Homo sapiens (Human), UniProt P03372)
Sequence (P03372 whole entry): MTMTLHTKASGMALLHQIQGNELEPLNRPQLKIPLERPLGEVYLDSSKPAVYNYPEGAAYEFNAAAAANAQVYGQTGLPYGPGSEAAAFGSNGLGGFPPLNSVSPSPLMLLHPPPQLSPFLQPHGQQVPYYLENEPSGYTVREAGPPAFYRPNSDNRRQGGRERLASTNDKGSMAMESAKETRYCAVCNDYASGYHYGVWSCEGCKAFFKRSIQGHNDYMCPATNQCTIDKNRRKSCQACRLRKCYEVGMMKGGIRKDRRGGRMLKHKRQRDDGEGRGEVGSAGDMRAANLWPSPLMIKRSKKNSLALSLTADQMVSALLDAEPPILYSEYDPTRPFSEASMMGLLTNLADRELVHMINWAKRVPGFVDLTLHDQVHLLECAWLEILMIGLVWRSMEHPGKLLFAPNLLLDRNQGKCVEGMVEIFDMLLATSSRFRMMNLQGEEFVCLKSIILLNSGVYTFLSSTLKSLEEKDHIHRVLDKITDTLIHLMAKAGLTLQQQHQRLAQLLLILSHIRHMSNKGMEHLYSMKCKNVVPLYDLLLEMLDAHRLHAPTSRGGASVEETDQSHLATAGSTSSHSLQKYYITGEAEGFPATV
Assay: In-cell western (ICW) ER degradation assay in MCF-7 cells
Type: cell-based
Conditions: MCF7, maximal ER degradation, MCF7, 16 hrs
measurement_type: Dmax

molecule	value_measured
O=C1CCC(N2C(=O)c3cc4c(cc3C2=O)CN(CC(=O)N2CCC3(CC2)CN(c2ccc([C@H]5c6ccc(O)cc6OC[C@H]5c5ccccc5)cc2)C3)C4)C(=O)N1 (single isomer, unassigned)	25 to 50%

Let's switch to this molecule now.
I'd like to know its Dmax. The molecule in question is O=C1CCC(N2Cc3cc4c(cc3C2=O)OC[C@@H]2CN(CC3CCN(c5ccc([C@H]6c7ccc(O)cc7OC[C@H]6c6ccccc6)cn5)CC3)CCN42)C(=O)N1 (single isomer, unassigned)
25 to 50%
